Molecular target: UniProtKB Q8ILY1
Test: Fluorescence-based high-throughput DNA polymerase assay (molecular beacon), primary screen and dose-response
Assay type: biochemical
Conditions: DRC-2; concentration 10; 40'
value.kind: % inhibition Apol 40' (%)

INSERT INTO results (compound, value) VALUES
  ('CCOc1ccc2cc(C3=NN(C(=O)CCC(=O)O)C(c4ccc(C)cc4)C3)c(=O)[nH]c2c1 (stereo not drawn) [KU0056200]', 25),
  ('CCCN1COc2ccc3c(=O)c(-c4ccccc4)coc3c2C1 [KU0199556]', 23),
  ('O=C1c2ccccc2C(=O)c2c1oc1c3c(ccc21)OCN(C1CCCC1)C3 [KU0064306]', 46),
  ('CCc1ccccc1NC(=O)c1ccc(-c2ncccc2NC(C)=O)cc1 [KU0203112]', 28),
  ('O=C(Cn1ccc2c(=O)[nH]ccc21)Nc1ccccc1Cl [Molecule 19, O=C(Cn1ccc2c1cc[nH]c2=O)Nc1ccccc1Cl]', 65),
  ('COc1ccc(NC(=O)Cn2nc3c(cc2=O)CCC3)cc1Cl [Molecule 4, COc1ccc(cc1Cl)NC(=O)Cn1nc2CCCc2cc1=O]', 69);

###

Biological target: P. falciparum apicoplast DNA polymerase (Pf-apPOL) (Plasmodium falciparum, UniProt Q8ILY1)
Sequence (Q8ILY1 entry or part of it): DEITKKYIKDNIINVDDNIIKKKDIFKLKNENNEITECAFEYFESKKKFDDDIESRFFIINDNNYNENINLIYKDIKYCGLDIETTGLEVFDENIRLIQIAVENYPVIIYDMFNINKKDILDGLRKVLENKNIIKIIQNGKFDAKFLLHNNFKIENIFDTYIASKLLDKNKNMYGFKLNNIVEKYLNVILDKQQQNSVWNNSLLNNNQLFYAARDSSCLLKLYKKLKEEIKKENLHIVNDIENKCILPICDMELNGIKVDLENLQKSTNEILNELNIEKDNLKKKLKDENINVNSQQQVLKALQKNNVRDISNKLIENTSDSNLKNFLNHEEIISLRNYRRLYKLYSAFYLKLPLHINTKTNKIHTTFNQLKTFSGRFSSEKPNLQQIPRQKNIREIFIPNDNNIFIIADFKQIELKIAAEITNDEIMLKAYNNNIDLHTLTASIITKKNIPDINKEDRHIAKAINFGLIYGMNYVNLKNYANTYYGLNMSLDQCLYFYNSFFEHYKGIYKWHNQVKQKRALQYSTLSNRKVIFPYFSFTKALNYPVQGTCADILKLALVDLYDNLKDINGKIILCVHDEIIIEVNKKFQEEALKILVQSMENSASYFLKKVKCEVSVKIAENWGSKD
Experiment: Fluorescence-based high-throughput DNA polymerase assay (molecular beacon), primary screen and dose-response;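 on % inhibition ApPOL 90': test concentration in µM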
Type: biochemical
Settings: DRC-2; 90'; conc 10
Catalogue of % inhibition ApPOL 90' readings, one per entry.
value.kind: % inhibition ApPOL 90' (%)

INSERT INTO assay_data (compound, value) VALUES
  ('COC(=O)c1sc(-c2ccc(C(C)(C)C)cc2)cc1NC(=O)CCC(=O)O', 38),
  ('COc1ccccc1C1CC(=O)Oc2cc3c(cc21)OCO3 (stereo not shown)', 42),
  ('O=c1nc(/C=C/c2ccc(Br)cc2)oc2ccccc12', 5),
  ('Cc1ccccc1NC(=O)Cn1ccc2c(=O)[nH]ccc21 [Molecule 50, O=C(Cn1ccc2c1cc[nH]c2=O)Nc1ccc(cc1)C]', 41),
  ('O=C1Nc2ccc(I)cc2C1=Cc1cc(Br)c(O)c(Br)c1', 48),
  ('C=CCOc1c(Br)cc(Br)cc1/C=C1\SC(=N)NC1=O', 23),
  ('Cc1cccc(C2=N/C(=C\c3ccc([N+](=O)[O-])o3)C(=O)O2)c1', 33),
  ('Cc1cc(C)c2c(c1)C1C=CCC1C(c1ccc(C(=O)O)cc1)N2 (stereo not shown)', 58),
  ('Cc1ccc(CNC(=O)c2cnn3c(O)cc(CSc4ccc(Cl)cc4)nc23)cc1', 49),
  ('O=C1NN(c2ccc(Cl)c(Cl)c2)C(=O)/C1=C/c1ccc(-c2ccc3c(c2)C(=O)OC3)o1', 35);

###

Molecular target: P. falciparum apicoplast DNA polymerase (Pf-apPOL) (Plasmodium falciparum, UniProt Q8ILY1)
Assay: Fluorescence-based high-throughput DNA polymerase assay (molecular beacon), primary screen and dose-response
Type: biochemical
Settings: DRC-1; read at 10'; concentration 80
Description: The HT assay employs a molecular beacon, a stem-loop DNA template with a Cy3 dye and the Black Hole Quencher on the 3′ and 5′ ends of the DNA, respectively. Pf-apPOL concentration is based on a calculated absorptivity of ε280 = 56750 M^−1 cm^−1. […] To identify apPOL inhibitors we utilised our previously developed high-throughput DNA polymerase assay. […] The assay accurately recapitulates the kinetic behaviour of apPOL, as measured through more conventional low-throughput gel-based assays. […]
This listing pairs compounds with measured % inhibition Apo pol 10' 80.
value.kind: % inhibition Apo pol 10' 80 (%)

INSERT INTO results (compound, value) VALUES
  ('N#Cc1c(O)nc(N2CCCCC2)nc1-c1ccc2c(c1)OCO2', 78.8965),
  ('Cc1ccc(N2CCC(NC(=O)Cc3cccs3)C2=O)cc1C (centres unmarked)', 44.3208),
  ('Cc1cc2[nH]c(C(=O)Nc3ccc(F)cc3)c(CN3CCOCC3)c2s1', 76.8011),
  ('Cc1cccc(-c2noc(C(=O)NNC(=O)C(Cl)(Cl)Cl)n2)c1', 74.0124),
  ('COc1ccc(/C=C/c2cc(C(=O)O)c3ccccc3n2)cc1', 72.4327),
  ('COc1ccccc1CC(=O)N1CCc2c(nc3cc(-c4ccccc4Cl)[nH]n3c2=O)C1', 74),
  ('Cc1ccsc1Cn1c(C)ccc1C', 76.6416),
  ('Nc1cc(Oc2ccc(O)c(N)c2)ccc1O', 87.2374);

###

Target: P. falciparum apicoplast DNA polymerase (Pf-apPOL) (Plasmodium falciparum, UniProt Q8ILY1)
Assay: Fluorescence-based high-throughput DNA polymerase assay (molecular beacon), primary screen and dose-response
Assay type: biochemical
Details: DRC-2; 5'; conc 2.5
Returns one of y or n; y when % inhibition Apo pol 5' is >= 30%.

INSERT INTO assay_data (compound, classification) VALUES
  ('O=C1NN(c2ccc(Cl)c(Cl)c2)C(=O)/C1=C/c1ccc(-c2ccc3c(c2)C(=O)OC3)o1', 'y'),
  ('Cc1cc(C)c2c(c1)C1C=CCC1C(c1ccc(C(=O)O)cc1)N2 (centres unmarked)', 'y'),
  ('Cc1cccc(NC(=O)Cn2ccc3c(=O)[nH]ccc32)c1C [Molecule 11, O=C(Cn1ccc2c1cc[nH]c2=O)Nc1cccc(c1C)C]', 'n'),
  ('O=c1nc(/C=C/c2ccc(Br)cc2)oc2ccccc12', 'n'),
  ('Cc1ccc(CNC(=O)c2cnn3c(O)cc(CSc4ccc(Cl)cc4)nc23)cc1', 'n'),
  ('COC(=O)c1sc(-c2ccc(C(C)(C)C)cc2)cc1NC(=O)CCC(=O)O', 'n'),
  ('Cc1ccc(N2NC(=O)/C(=C\c3ccc(O)c([N+](=O)[O-])c3)C2=O)cc1Cl', 'n'),
  ('Cc1ccc(NC(=O)Cn2ccc3c(=O)[nH]ccc32)c(C)c1', 'n');

###

Biological target: P. falciparum apicoplast DNA polymerase (Pf-apPOL) (Plasmodium falciparum)
Assay: Fluorescence-based high-throughput DNA polymerase assay (molecular beacon), primary screen and dose-response
Format: biochemical
Conditions: DRC-2; 40'; conc 2.5
value.kind: % inhibition Apol 40' (%)

INSERT INTO measurements (compound, value_unit, value) VALUES
  ('Cc1cc(C)c2c(c1)C1C=CCC1C(c1ccc(C(=O)O)cc1)N2 (stereo not shown)', '%', 34),
  ('O=C(O)c1ccc(COc2cc([N+](=O)[O-])cc3cccnc23)cc1', '%', 10),
  ('C=CC1=C(C)c2cc3[nH]c(cc4nc(cc5[nH]c(cc1n2)c(C)c5CCC(=O)O)C(CCC(=O)O)=C4C)c(C)c3C=C', '%', 44),
  ('Cc1cccc(NC(=O)Cn2ccc3c(=O)[nH]ccc32)c1C [Molecule 11, O=C(Cn1ccc2c1cc[nH]c2=O)Nc1cccc(c1C)C]', '%', 0.556);

###

Target: bacteriophage T4 DNA polymerase (Enterobacteria phage T4, UniProt P04415)
Construct: made in house
Sequence (P04415 whole entry): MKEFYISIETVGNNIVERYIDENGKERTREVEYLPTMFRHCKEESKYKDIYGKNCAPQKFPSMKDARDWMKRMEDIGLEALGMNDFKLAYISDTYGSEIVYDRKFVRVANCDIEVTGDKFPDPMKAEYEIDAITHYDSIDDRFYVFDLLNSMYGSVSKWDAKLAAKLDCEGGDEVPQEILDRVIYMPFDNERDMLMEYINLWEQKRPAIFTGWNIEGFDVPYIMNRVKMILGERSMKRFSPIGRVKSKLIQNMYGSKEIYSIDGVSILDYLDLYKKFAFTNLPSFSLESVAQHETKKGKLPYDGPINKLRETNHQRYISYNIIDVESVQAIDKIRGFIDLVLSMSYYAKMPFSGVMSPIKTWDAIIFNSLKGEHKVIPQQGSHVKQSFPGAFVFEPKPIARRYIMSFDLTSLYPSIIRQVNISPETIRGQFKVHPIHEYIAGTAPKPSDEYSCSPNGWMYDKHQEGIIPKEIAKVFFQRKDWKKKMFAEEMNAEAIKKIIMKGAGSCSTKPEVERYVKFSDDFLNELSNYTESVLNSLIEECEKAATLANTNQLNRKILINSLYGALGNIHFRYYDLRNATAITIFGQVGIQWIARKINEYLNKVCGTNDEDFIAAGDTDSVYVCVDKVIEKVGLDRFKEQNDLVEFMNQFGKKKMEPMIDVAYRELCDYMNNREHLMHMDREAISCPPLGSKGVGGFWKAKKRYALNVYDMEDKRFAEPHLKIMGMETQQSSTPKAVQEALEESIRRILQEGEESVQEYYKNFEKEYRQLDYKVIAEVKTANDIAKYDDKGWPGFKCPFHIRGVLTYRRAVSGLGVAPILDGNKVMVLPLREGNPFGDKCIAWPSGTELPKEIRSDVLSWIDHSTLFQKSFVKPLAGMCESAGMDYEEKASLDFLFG
Test: Counter-screen against bacteriophage T4 DNA polymerase
Type: biochemical
Details: DRC-2; read at 10'; concentration 2.5
Description: Codon-optimized, exonuclease-deficient Pf-apPOL was overexpressed in E. coli BL21 (DE3) and purified as described. The protein was dialysed against two, 1-liter changes of 20 mM Tris-HCl (pH 8.0), 400 mM NaCl, and 20% glycerol. […] Each compound was tested in a dose-response format to determine IC50 values. […] T4 DNA polymerase can be produced in large quantities, and is in the same family (B-family) as the replicative human DNA polymerases (α, δ, and ε)[20].
value.kind: % inhibition T4 10' 2.5 (%)

INSERT INTO assay_data (compound, value_kind, value) VALUES
  ('N#Cc1c(O)nc(N2CCCCC2)nc1-c1ccc2c(c1)OCO2 [KU0083146]', '% inhibition T4 10'' 2.5', 12),
  ('Cn1nc(-c2nnc(-c3ccccc3F)o2)c2c1CCN(C(=O)c1ccccc1Cl)C2 [Molecule 34]', '% inhibition T4 10'' 2.5', 0.487),
  ('CCCc1ccc(Oc2coc3cc(OC)ccc3c2=O)cc1 [KU0193249]', '% inhibition T4 10'' 2.5', 9),
  ('Cc1cccc(-c2noc(C(=O)NNC(=O)C(Cl)(Cl)Cl)n2)c1 [KU0266208]', '% inhibition T4 10'' 2.5', 7),
  ('Cc1ccc(N2CCC(NC(=O)Cc3cccs3)C2=O)cc1C (stereo not drawn) [Molecule 57, O=C(NC1CCN(C1=O)c1ccc(c(c1)C)C)Cc1cccs1]', '% inhibition T4 10'' 2.5', 14),
  ('Cc1nc(C)c2c(n1)N(CC1CCCCC1)C(=O)CC2 [KU0218606]', '% inhibition T4 10'' 2.5', 4),
  ('O=C(CCc1csc(NC(=O)Nc2ccccc2)n1)Nc1nc2ccccc2s1 [KU0177354]', '% inhibition T4 10'' 2.5', -8),
  ('CC(=O)Nc1cc(C(=O)c2cccs2)nn(-c2ccc(Cl)cc2)c1=O [KU0267905]', '% inhibition T4 10'' 2.5', 8),
  ('CC(C)CC(C(=O)O)N1C(=O)C2C3C=CC(C2C1=O)C1C(=O)N(C(CC(C)C)C(=O)O)C(=O)C31 (stereo not drawn) [KU0193449]', '% inhibition T4 10'' 2.5', 4.54);

Each recorded value in this set is attributed to paper PMC9090415.
